molecular target: human CD33 E360A (human, UniProt P20138 18-364); test: flow cytometry, alanine scan
Sequence (P20138 18-364 E360A limits assumed): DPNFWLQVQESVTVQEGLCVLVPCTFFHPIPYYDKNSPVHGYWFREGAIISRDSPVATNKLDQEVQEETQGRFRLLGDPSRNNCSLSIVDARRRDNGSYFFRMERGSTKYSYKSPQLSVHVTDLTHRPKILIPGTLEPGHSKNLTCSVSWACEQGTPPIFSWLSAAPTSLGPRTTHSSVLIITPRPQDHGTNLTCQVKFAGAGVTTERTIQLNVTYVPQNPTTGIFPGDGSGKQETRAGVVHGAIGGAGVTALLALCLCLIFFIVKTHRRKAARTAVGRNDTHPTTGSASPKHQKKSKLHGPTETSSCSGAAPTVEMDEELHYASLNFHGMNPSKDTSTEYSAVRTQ
Recorded Mean % WT Binding, one value per entry.

>  <binder>
Refmab #4 (antibody, V domains shown, The alanine scan used IgG or Fab) VH: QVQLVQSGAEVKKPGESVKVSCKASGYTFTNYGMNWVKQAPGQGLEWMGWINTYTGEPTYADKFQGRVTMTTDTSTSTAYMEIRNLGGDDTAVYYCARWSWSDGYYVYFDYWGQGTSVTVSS VL: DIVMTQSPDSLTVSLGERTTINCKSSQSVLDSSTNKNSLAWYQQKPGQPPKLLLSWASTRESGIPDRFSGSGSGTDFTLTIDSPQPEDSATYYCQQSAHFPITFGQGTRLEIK

>  <Mean % WT Binding>
104 % of WT

$$$$
>  <binder>
Refmab #3 (antibody, V domains shown, The alanine scan used IgG or Fab) VH: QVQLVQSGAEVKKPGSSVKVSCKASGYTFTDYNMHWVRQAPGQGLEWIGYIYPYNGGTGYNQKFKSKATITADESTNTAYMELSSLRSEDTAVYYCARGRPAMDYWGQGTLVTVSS VL: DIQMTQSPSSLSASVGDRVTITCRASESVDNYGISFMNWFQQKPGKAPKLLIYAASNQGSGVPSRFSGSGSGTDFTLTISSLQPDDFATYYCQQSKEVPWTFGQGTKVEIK

>  <Mean % WT Binding>
123 % of WT

$$$$
>  <binder>
Refmab #2 (antibody, V domains shown, The alanine scan used IgG or Fab) VH: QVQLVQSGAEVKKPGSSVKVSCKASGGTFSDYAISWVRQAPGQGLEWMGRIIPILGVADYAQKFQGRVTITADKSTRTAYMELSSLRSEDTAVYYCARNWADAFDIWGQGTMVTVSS VL: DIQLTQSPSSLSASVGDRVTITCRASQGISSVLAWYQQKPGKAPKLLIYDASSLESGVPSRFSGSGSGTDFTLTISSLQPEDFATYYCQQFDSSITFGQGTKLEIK

>  <Mean % WT Binding>
101 % of WT

$$$$
>  <binder>
Refmab #1 (antibody, V domains shown, The alanine scan used IgG or Fab; also called hP67.6) VH: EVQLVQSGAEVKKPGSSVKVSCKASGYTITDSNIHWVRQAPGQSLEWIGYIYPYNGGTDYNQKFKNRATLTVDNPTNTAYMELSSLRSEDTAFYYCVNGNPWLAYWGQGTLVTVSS VL: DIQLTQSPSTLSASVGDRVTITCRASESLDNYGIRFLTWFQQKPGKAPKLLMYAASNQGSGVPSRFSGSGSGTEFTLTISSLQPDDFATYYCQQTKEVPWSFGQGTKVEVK

>  <Mean % WT Binding>
73.7 % of WT

$$$$
